# Tested on: isolated rat uterus
# particulars: antiserotonin activity, in vitro isolated rat uterus
# log10(ED₅₀) per record follows
Give log10 of ED₅₀, with ED₅₀ taken in µg/mL.

Solved entries:
>>> observed("CN1C[C@H](C(=O)N2CC(O)C[C@H]2CO)C=C2c3cccc4c3c(cn4C)C[C@H]21.Cl (stereo partly drawn)")
-3.00
>>> observed("CN1C[C@H](C(=O)N2CCC[C@H]2CO)C=C2c3cccc4[nH]cc(c34)C[C@H]21.O=C(O)/C=C\\C(=O)O")
-1.23
>>> observed("CN1C[C@H](C(=O)N2C[C@H](O)C[C@H]2CO)C=C2c3cccc4[nH]cc(c34)C[C@H]21 [P 1414, N-(D-Lysergyl)-4-hydroxy-L-prolinol]")
-2.15
>>> observed("CN1C[C@H](C(=O)N2CCC[C@H]2C#N)C=C2c3cccc4c3c(cn4C)C[C@H]21.Cl")
-2.52

Data request, read-out log10(ED₅₀), for CC(C)[C@@]1(NC(=O)[C@@H]2C[C@@H]3c4cccc5[nH]cc(c45)C[C@H]3N(C)C2)O[C@@]2(O)[C@@H]3CCCN3C(=O)[C@H](Cc3ccccc3)N2C1=O [Dihydroergocristine, reference compound]
-2.15

Sample CN1C[C@H](C(=O)N2CC(O)C[C@H]2CO)C=C2c3cccc4[nH]c(Br)c(c34)C[C@H]21 (stereo partly drawn) — what was its log10(ED₅₀)?
-1.82

Consider the compound CN1C[C@H](C(=O)N2CCC[C@H]2C(=O)O)C=C2c3cccc4[nH]cc(c34)C[C@H]21 and give its measured log10(ED₅₀).
-0.43

###

# System: rat seminal vesicle
# procedure_summary: Adrenolytic activity, in vitro rat seminal vesicle test
endpoint_name: ED₅₀ (µg/mL)
Supply the numeric figure in µg/mL, leaving out any unit text.

Example cases with answers are listed next.
>>> observed("CN1C[C@H](C(=O)N2CCC[C@H]2C#N)C=C2c3cccc4[nH]cc(c34)C[C@H]21.Cl")
0.22
>>> observed("COC(=O)[C@@H]1CCCN1C(=O)[C@@H]1C=C2c3cccc4[nH]cc(c34)C[C@H]2N(C)C1.O=C(O)/C=C\\C(=O)O")
1.02
>>> observed("CN1CC(C(=O)N2CC(O)CC2CO)CC2c3cccc4[nH]cc(c34)CC21 (centres unmarked)")
2.89
>>> observed("CN1C[C@H](C(=O)N2CC(O)C[C@H]2CO)C=C2c3cccc4[nH]c(Br)c(c34)C[C@H]21 (some centres unmarked)")
0.95
>>> observed("CN1C[C@H](C(=O)N2CCC[C@H]2C#N)C=C2c3cccc4c3c(cn4C)C[C@H]21.Cl")
0.50
>>> observed("CN1C[C@H](CN2CCC[C@H]2CO)C=C2c3cccc4[nH]cc(c34)C[C@H]21.Cl.Cl")
2.82
>>> observed("CC[C@@H](CO)NC(=O)[C@@H]1C=C2c3cccc4c3c(cn4C)C[C@H]2N(C)C1 [Methysergid, reference compound]")
2.48

Let us examine a further case.
Item under review: CN1C[C@H](C(=O)N2CC(O)C[C@H]2CO)C=C2c3cccc4c3c(cn4C)C[C@H]21.Cl (some centres unmarked) . Reported ED₅₀?
3.52

###

# System: isolated rat uterus
# particulars: antiserotonin activity, in vitro isolated rat uterus
endpoint_name: log10 of ED₅₀ (log10 of the value in µg/mL)
Reminder: these figures are log10 of reported ED₅₀, in µg/mL before transformation.

Answered examples (4):
>>> observed("CC(C)C[C@H]1C(=O)N2CCC[C@H]2[C@]2(O)O[C@](NC(=O)[C@@H]3C[C@@H]4c5cccc6[nH]cc(c56)C[C@H]4N(C)C3)(C(C)C)C(=O)N12 [Dihydro-α-ergocryptine, reference compound]")
-1.46
>>> observed("CN1C[C@H](CN2CCC[C@H]2CO)C=C2c3cccc4[nH]cc(c34)C[C@H]21.Cl.Cl [P 1421]")
-1.96
>>> observed("CN1CC(C(=O)N2CC(O)CC2CO)CC2c3cccc4[nH]cc(c34)CC21 (centres unmarked) [P 1422]")
-1.85
>>> observed("CN1C[C@H](C(=O)N2CCC[C@H]2C#N)C=C2c3cccc4[nH]cc(c34)C[C@H]21.Cl [P 1419]")
-1.14

Now for a further molecule.
# log10 of ED₅₀ lookup, item CC(C)C[C@H]1C(=O)N2CCC[C@H]2[C@]2(O)O[C@](NC(=O)[C@@H]3C=C4c5cccc6[nH]c(Br)c(c56)C[C@H]4N(C)C3)(C(C)C)C(=O)N12 [α-Bromocryptine, reference compound]
-0.33
